Test system: MS2 coat protein
Assay: apparent KD of MS2 coat protein; designed switch direction (-1 OFF switch, 1 ON switch): -1; higher = weaker reporter binding
Conditions: input ligand: none
Tick true (1) if apparent KD of MS2 coat protein is 50 nM or greater. Tick false (0) if apparent KD of MS2 coat protein is less than 50 nM.

Some entries whose results are on file:
{"columns": ["SEQUENCE INPUT", "ANSWER LABEL"],
 "data": [
  ["UUUUAGUAAGGAUAUGGUUAGAUCUACUUCGGUAGAUCUAACCAGAAGGUACAUGAGGAUCACCCAUGUAGAUA [Mod of Brourd 19 - Jieux - Exclusion 4] (Eterna round: R97, puzzle: Exclusion 4)", "false (0)"],
  ["CAGCUGAAUGUGAGGAUAUUACGAGCCUCGGCUCGUGAGAAGGCACAUGAGGAUCACCCAUGUCUCAACAGCUG [BmEx4/2-B2] (Eterna round: R97, puzzle: Brourd's mod of Exclusion 4)", "false (0)"],
  ["UCCUUACUUGAGGAUCACCCAAGUCAGGAUAUACACCAGAAUAAAUCCCAGCCCUGGCGUAGAAGGGACGGGUG [Esesle] (Eterna round: R97, puzzle: Exclusion 1)", "false (0)"],
  ["AAAACGUCAGGAUAUCCAAUAUAUGACAUGAGGAUCACCCAUGUUUCCACUCGUACCUCCGGAGAAGGGACUAAUA [Ex5 #84] (Eterna round: R97, puzzle: Exclusion 5)", "false (0)"],
  ["AGAUCACAUGAGGAUCACCCAUGUCAGGAUAUCGUCACUGGAGCUGCGGCUCCAGUGACGAGAAGGGACAUAAU [E1/2-A3] (Eterna round: R97, puzzle: Exclusion 1)", "true (1)"],
  ["UGUUGUCGCGUAGGAUAUGCAUGAGGAUCACCCAUGCAAUUAGAGUUAACAUGAGGAUCACCCAUGUAGAAGGACGGGACAACU [pwkr exNG2 2xF5 1xFMN.6] (Eterna round: R96, puzzle: Exclusion NG 2)", "true (1)"]
]}

Please indicate if the recorded apparent KD of MS2 coat protein for CGCUGGACAGGAUAUGUUCUUGGGCACUUGAGGAUCACCCAAGUCAUCAAGAAAACAGGCACAGAAGGGUUUAUGG [salish99_ex5_r4_020] (Eterna round: R97, puzzle: Exclusion 5) meets or exceeds 50 nM.
false (0)

Please indicate if the recorded apparent KD of MS2 coat protein for AGGUGUAGAGGAUAUUUAUUCUUCCACAUGAGGAUCACCCAUGUCCUGGUCACCAAGGACGGAGAAGGCUACACCA [Omei Ex5 D24] (Eterna round: R97, puzzle: Exclusion 5) meets or exceeds 50 nM.
true (1)

Please indicate if the recorded apparent KD of MS2 coat protein for UCUGGUCGAGGAUAUACAUGAGGAUCACCCAUGUAGAUCAACCAGCGAUAGCUGGAAUGUAGAAGGCGACCAGA [E3/5-A3] (Eterna round: R97, puzzle: Exclusion 3) meets or exceeds 50 nM.
false (0)
